# reported composite z-score; entries follow
- target: Albumin (Bos taurus)
- procedureDetails: bovine serum albumin binders on microarray, profiling panel, artefact control for SMM control protein annotation, biochemical, small-molecule microarray, Alexa647 label, 635/667 nm fluorescence (AID 1118);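 also: score merges 667 nm emission intensity and signal-to-noise per printed compound spot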
- testConditions: BSA-A647 binding, fluorescence 635 nm, higher = more signal
API note: the answer field is a bare number with no unit suffix.

{"compound": "CCc1cc2c(nc1CC)CCN(CCC(C)=NOC(C)CN1CCCc3nc(C)c(C)cc31)C2 (stereo not drawn)", "target": "Albumin (Bos taurus)", "composite z-score": 0.263}

## Input Entry COC(=O)[C@H](C)NC(=O)[C@@H](C)CO needs its composite z-score filled in; supply it.
## Output 0.802

## Input Entry CCOC(=O)NN=C1C[C@@H](O)[C@@H](O)[C@@H]2[C@@H]3C(=O)N(C(C)(C)C)C(=O)[C@@H]3CC[C@@H]12 needs its composite z-score filled in; supply it.
## Output -0.422

## Input Entry C[C@@H](c1ccccc1)N1C(=O)[C@H]2[C@H]3[C@H](O)C=CC(=O)[C@@H]3CC[C@H]2C1=O needs its composite z-score filled in; supply it.
## Output 0.0343

## Input Entry CCOC(=O)[C@H](CC(C)C)NC(=O)CCC1CC(OC(=O)NCCc2ccc(F)cc2)CC2(CCCC(COC(=O)NCc3ccccc3)O2)O1 (stereo partly drawn) needs its composite z-score filled in; supply it.
## Output 0.173

## Input Entry CC(C)[C@@H](OCc1ccccc1)[C@H](C)C=NOC[C@@H](C)[C@H](OCc1ccccc1)C(C)C needs its composite z-score filled in; supply it.
## Output -0.248

## Input Entry COCC1=C2[C@@H](CCc3ccccc3)OB(O)C[C@@H]2n2c(=O)n(-c3ccccc3)c(=O)n2C1 needs its composite z-score filled in; supply it.
## Output 0.352

## Input Entry CC(C)CON=C1C[C@@H](O)[C@@H](O)[C@@H]2[C@@H]3C(=O)N(Cc4ccccc4)C(=O)[C@@H]3CC[C@@H]12 needs its composite z-score filled in; supply it.
## Output 0.0737
